Listed next: entries and their corresponding AUC(0-t) at 48 h.
- Experiment: AUC (0 to 48 hrs) in liver of Sprague-Dawley rat at 10 mg/kg, po administered as single dose via gavage by LC-MS/MS analysis
- Format: ADME, organism-based
- Set-up: time < 48 hr, dose 10 mg/kg, route oral
Attribute measured: AUC(0-t) at 48 h (µM·h)

1) Nc1ncc(C(=O)N[C@H]2CC/C(=C\c3cccc(Oc4ccc(C(F)(F)F)cn4)c3)CC2)cn1 (centres undefined)	1020
2) O=C(N[C@H]1CC/C(=C\c2cccc(Oc3ccc(C(F)(F)F)cn3)c2)CC1)c1cccnc1 (centres undefined)	580
3) Nc1ccc(C(=O)N[C@H]2CC/C(=C\c3cccc(Oc4ccc(C(F)(F)F)cn4)c3)CC2)cn1 (centres undefined)	1950
4) Cc1cc(C(=O)N[C@H]2CC/C(=C\c3cccc(Oc4ccc(C(F)(F)F)cn4)c3)CC2)cnc1N (centres undefined)	1130

---

- Test system: CYP2C9
- Experiment: Selectivity ratio of IC50 for CYP2C9 in human liver microsomes to IC50 for rat FFAH expressed in Escherichia coli
- Format: toxicity
- Applied conditions: read-out: Ratio IC50
Listed next: entries and their corresponding selectivity ratio.
Attribute measured: selectivity ratio

1) Nc1ncc(C(=O)N[C@H]2CC/C(=C\c3cccc(Oc4ccc(C(F)(F)F)cn4)c3)CC2)cn1 (configuration not stated)	> 5000
2) Cc1cc(C(=O)N[C@H]2CC/C(=C\c3cccc(Oc4ccc(C(F)(F)F)cn4)c3)CC2)cnc1N (configuration not stated)	> 5000

---

- Assay system: Cytochrome P450 3A4 (Homo sapiens)
- Sequence (P08684 whole entry): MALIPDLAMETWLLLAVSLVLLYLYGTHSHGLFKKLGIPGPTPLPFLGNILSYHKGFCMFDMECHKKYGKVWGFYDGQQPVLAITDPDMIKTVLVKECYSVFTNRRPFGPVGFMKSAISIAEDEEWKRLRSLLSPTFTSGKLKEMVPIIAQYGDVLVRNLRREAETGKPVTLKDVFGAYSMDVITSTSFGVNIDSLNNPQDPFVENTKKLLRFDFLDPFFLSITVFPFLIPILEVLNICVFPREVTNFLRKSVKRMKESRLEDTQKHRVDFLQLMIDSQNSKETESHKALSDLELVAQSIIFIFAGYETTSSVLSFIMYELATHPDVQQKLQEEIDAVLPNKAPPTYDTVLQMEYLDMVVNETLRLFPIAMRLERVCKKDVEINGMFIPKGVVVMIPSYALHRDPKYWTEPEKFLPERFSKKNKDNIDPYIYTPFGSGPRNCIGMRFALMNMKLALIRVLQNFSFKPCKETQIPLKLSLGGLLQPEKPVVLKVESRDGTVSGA
- Experiment: Inhibition of CYP3A4 in human liver microsomes using testosterone as substrate preincubated for 5 mins followed by NADPH cofactor addition and measured after 10 mins by LC-MS/MS analysis
- Type: ADME
Attribute measured: IC50

1) Nc1ccc(C(=O)N[C@H]2CC/C(=C\c3cccc(Oc4ccc(C(F)(F)F)cn4)c3)CC2)cn1 (centres undefined)	> 12.5 µM
2) Cc1cc(C(=O)N[C@H]2CC/C(=C\c3cccc(Oc4ccc(C(F)(F)F)cn4)c3)CC2)cnc1N (centres undefined)	> 12.5 µM
3) Nc1ncc(C(=O)N[C@H]2CC/C(=C\c3cccc(Oc4ccc(C(F)(F)F)cn4)c3)CC2)cn1 (centres undefined)	> 12.5 µM
4) O=C(N[C@H]1CC/C(=C\c2cccc(Oc3ccc(C(F)(F)F)cn3)c2)CC1)c1cccnc1 (centres undefined)	0.4 µM

---

Measured IC50 on Cytochrome P450 2C9 (Homo sapiens) follows.
Sequence (P11712 whole entry): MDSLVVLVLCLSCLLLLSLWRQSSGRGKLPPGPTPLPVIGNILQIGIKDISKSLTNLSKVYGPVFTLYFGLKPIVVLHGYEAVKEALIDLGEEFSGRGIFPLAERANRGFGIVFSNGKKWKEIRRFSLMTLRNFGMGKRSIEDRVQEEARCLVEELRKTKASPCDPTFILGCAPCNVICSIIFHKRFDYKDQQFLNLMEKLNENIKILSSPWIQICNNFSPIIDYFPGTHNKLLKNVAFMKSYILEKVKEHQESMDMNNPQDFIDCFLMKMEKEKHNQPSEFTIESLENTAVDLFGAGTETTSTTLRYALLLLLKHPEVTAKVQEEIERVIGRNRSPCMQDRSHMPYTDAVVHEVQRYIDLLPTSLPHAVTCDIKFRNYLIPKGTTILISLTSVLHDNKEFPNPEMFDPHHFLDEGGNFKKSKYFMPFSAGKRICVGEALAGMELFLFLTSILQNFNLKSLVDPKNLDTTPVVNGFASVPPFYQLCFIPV
Attribute measured: IC50 (µM)

1) Nc1ncc(C(=O)N[C@H]2CC/C(=C\c3cccc(Oc4ccc(C(F)(F)F)cn4)c3)CC2)cn1 (configuration not stated)	6.5
2) Nc1ccc(C(=O)N[C@H]2CC/C(=C\c3cccc(Oc4ccc(C(F)(F)F)cn4)c3)CC2)cn1 (configuration not stated)	3.4

---

Target protein (sequence): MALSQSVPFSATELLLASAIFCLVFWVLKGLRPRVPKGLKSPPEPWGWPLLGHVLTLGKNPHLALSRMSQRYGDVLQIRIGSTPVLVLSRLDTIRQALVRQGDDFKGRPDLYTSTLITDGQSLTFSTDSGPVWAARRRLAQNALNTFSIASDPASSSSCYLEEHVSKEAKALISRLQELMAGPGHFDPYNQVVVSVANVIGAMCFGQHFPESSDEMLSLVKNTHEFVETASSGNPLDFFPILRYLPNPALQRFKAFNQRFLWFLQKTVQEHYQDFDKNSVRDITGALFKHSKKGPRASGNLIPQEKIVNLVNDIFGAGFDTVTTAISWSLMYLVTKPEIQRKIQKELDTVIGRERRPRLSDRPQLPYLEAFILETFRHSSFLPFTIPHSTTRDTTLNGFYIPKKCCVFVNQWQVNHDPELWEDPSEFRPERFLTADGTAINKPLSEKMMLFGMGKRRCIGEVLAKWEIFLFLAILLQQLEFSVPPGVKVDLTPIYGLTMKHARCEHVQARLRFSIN
pIC50: −log10 of the molar value.
Attribute measured: pIC50

1) O=C(N[C@H]1CC/C(=C\c2cccc(Oc3ccc(C(F)(F)F)cn3)c2)CC1)c1cccnc1 (centres undefined)	< 5.00
2) Cc1cc(C(=O)N[C@H]2CC/C(=C\c3cccc(Oc4ccc(C(F)(F)F)cn4)c3)CC2)cnc1N (centres undefined)	< 4.90
3) Nc1ncc(C(=O)N[C@H]2CC/C(=C\c3cccc(Oc4ccc(C(F)(F)F)cn4)c3)CC2)cn1 (centres undefined)	< 4.90
4) Nc1ccc(C(=O)N[C@H]2CC/C(=C\c3cccc(Oc4ccc(C(F)(F)F)cn4)c3)CC2)cn1 (centres undefined)	< 4.90

---

- Experiment: Drug level in plasma of Sprague-Dawley rat at 10 mg/kg, po administered as single dose via gavage measured at 2 hrs by LC-MS/MS analysis
- Format: ADME, organism-based
Listed next: entries and their corresponding concentration at 2 h.
Attribute measured: concentration at 2 h (µM)

1. Nc1ncc(C(=O)N[C@H]2CC/C(=C\c3cccc(Oc4ccc(C(F)(F)F)cn4)c3)CC2)cn1 (centres undefined)	7.2
2. Nc1ccc(C(=O)N[C@H]2CC/C(=C\c3cccc(Oc4ccc(C(F)(F)F)cn4)c3)CC2)cn1 (centres undefined)	8.8
3. Cc1cc(C(=O)N[C@H]2CC/C(=C\c3cccc(Oc4ccc(C(F)(F)F)cn4)c3)CC2)cnc1N (centres undefined)	6.7
4. O=C(N[C@H]1CC/C(=C\c2cccc(Oc3ccc(C(F)(F)F)cn3)c2)CC1)c1cccnc1 (centres undefined)	7.2

---

Listed next: entries and their corresponding clearance.
- Experiment: Clearance in Sprague-Dawley rat at 3 mg/kg, iv or 10 mg/kg, po administered as single dose via gavage by LC-MS/MS analysis
- Assay type: ADME, organism-based
- Applied conditions: in vivo
Attribute measured: clearance (mL/min/kg)

1) Cc1cc(C(=O)N[C@H]2CC/C(=C\c3cccc(Oc4ccc(C(F)(F)F)cn4)c3)CC2)cnc1N (centres undefined)	0.8
2) Nc1ncc(C(=O)N[C@H]2CC/C(=C\c3cccc(Oc4ccc(C(F)(F)F)cn4)c3)CC2)cn1 (centres undefined)	0.6
3) Nc1ccc(C(=O)N[C@H]2CC/C(=C\c3cccc(Oc4ccc(C(F)(F)F)cn4)c3)CC2)cn1 (centres undefined)	0.7
4) O=C(N[C@H]1CC/C(=C\c2cccc(Oc3ccc(C(F)(F)F)cn3)c2)CC1)c1cccnc1 (centres undefined)	2.4

---

- Experiment: Drug uptake in Sprague-Dawley rat brain at 3 mg/kg, iv or 10 mg/kg, po administered as single dose via gavage by LC-MS/MS analysis
- Format: ADME, organism-based
- Applied conditions: in vivo
Attribute measured: Drug uptake

1. Cc1cc(C(=O)N[C@H]2CC/C(=C\c3cccc(Oc4ccc(C(F)(F)F)cn4)c3)CC2)cnc1N (configuration not stated)	50 to 80%
2. Nc1ncc(C(=O)N[C@H]2CC/C(=C\c3cccc(Oc4ccc(C(F)(F)F)cn4)c3)CC2)cn1 (configuration not stated)	50 to 80%

---

Listed next: entries and their corresponding concentration at 24 h.
- Experiment: Drug level in plasma of Sprague-Dawley rat at 10 mg/kg, po administered as single dose via gavage measured at 24 hrs by LC-MS/MS analysis
- Assay type: ADME, organism-based
Attribute measured: concentration at 24 h (µM)

1. O=C(N[C@H]1CC/C(=C\c2cccc(Oc3ccc(C(F)(F)F)cn3)c2)CC1)c1cccnc1 (centres undefined)	0.5
2. Nc1ccc(C(=O)N[C@H]2CC/C(=C\c3cccc(Oc4ccc(C(F)(F)F)cn4)c3)CC2)cn1 (centres undefined)	4.4
3. Cc1cc(C(=O)N[C@H]2CC/C(=C\c3cccc(Oc4ccc(C(F)(F)F)cn4)c3)CC2)cnc1N (centres undefined)	3.3
4. Nc1ncc(C(=O)N[C@H]2CC/C(=C\c3cccc(Oc4ccc(C(F)(F)F)cn4)c3)CC2)cn1 (centres undefined)	7

---

- Experiment: Drug level in brain of Sprague-Dawley rat at 10 mg/kg, po administered as single dose via gavage measured at 8 hrs by LC-MS/MS analysis
- Format: ADME, organism-based
- Applied conditions: read-out: Drug uptake
Attribute measured: concentration at 8 h (µM)

1. O=C(N[C@H]1CC/C(=C\c2cccc(Oc3ccc(C(F)(F)F)cn3)c2)CC1)c1cccnc1 (centres undefined)	4.7
2. Nc1ncc(C(=O)N[C@H]2CC/C(=C\c3cccc(Oc4ccc(C(F)(F)F)cn4)c3)CC2)cn1 (centres undefined)	7.2
3. Cc1cc(C(=O)N[C@H]2CC/C(=C\c3cccc(Oc4ccc(C(F)(F)F)cn4)c3)CC2)cnc1N (centres undefined)	3.2
4. Nc1ccc(C(=O)N[C@H]2CC/C(=C\c3cccc(Oc4ccc(C(F)(F)F)cn4)c3)CC2)cn1 (centres undefined)	5.2

---

Listed next: entries and their corresponding Kp.
- Experiment: Ratio of AUC (0 to 48 hrs) in brain to plasma of Sprague-Dawley rat at 10 mg/kg, po administered as single dose via gavage by LC-MS/MS analysis
- Type: ADME, organism-based
- Applied conditions: brain and plasma, read-out: Ratio AUC
Attribute measured: Kp

1. Nc1ccc(C(=O)N[C@H]2CC/C(=C\c3cccc(Oc4ccc(C(F)(F)F)cn4)c3)CC2)cn1 (centres undefined)	0.6
2. Cc1cc(C(=O)N[C@H]2CC/C(=C\c3cccc(Oc4ccc(C(F)(F)F)cn4)c3)CC2)cnc1N (centres undefined)	0.5
3. O=C(N[C@H]1CC/C(=C\c2cccc(Oc3ccc(C(F)(F)F)cn3)c2)CC1)c1cccnc1 (centres undefined)	1.5
4. Nc1ncc(C(=O)N[C@H]2CC/C(=C\c3cccc(Oc4ccc(C(F)(F)F)cn4)c3)CC2)cn1 (centres undefined)	0.8
